# Assay Procedure: The drug is tested on the gut metagenome community of T-02 with ENA study accession number: PRJEB31790 for biotransformation under anaerobic condition. The drug concentrations were measured over 7 timepoints collected between 0 and 12 hours of incubation by liquid-chromatography-coupled mass spectrometry (LC–MS)
# Type: ADME
# Design: dose 5 uM, timepoint 0, 0.75, 1.5, 3, 6, 9, 12 hours
# Conditions: 5 µM

Compound	Bacterial Biotransformation
COc1ccc([C@@H]2Sc3ccccc3N(CCN(C)C)C(=O)[C@@H]2OC(C)=O)cc1	Compound NOT metabolized
NS(=O)(=O)c1cc(C(=O)O)c(NCc2ccco2)cc1Cl [FUROSEMIDE]	Compound NOT metabolized
C[C@@H](NCCCc1cccc(C(F)(F)F)c1)c1cccc2ccccc12	Compound NOT metabolized

---

# Assay Procedure: The drug is tested on Lactobacillus fermentum strain: DSM20052 for biotransformation under anaerobic condition. The drug concentrations were measured over 6 timepoints collected between 0 and 12 hours of incubation by liquid-chromatography-coupled mass spectrometry (LC–MS)
# Assay type: ADME
# Parameters: dose 5 uM, timepoint 0, 1.5, 3, 6, 9, 12 hours
# Conditions: limosilactobacillus fermentum, 5 µM
Measured Attribute: Bacterial Biotransformation

Below, 5 compounds whose answers are already recorded.
Compound	Bacterial Biotransformation
C[C@@H](NCCCc1cccc(C(F)(F)F)c1)c1cccc2ccccc12	Compound NOT metabolized
CCOC(=O)[C@H](CCc1ccccc1)N[C@@H](C)C(=O)N1[C@H](C(=O)O)C[C@@H]2CCC[C@@H]21	Compound metabolized
COc1c(C)c2c(c(O)c1C/C=C(\C)CCC(=O)O)C(=O)OC2	Compound NOT metabolized
Cn1cnc([N+](=O)[O-])c1Sc1ncnc2nc[nH]c12	Compound metabolized
CCOc1nc2cccc(C(=O)O)c2n1Cc1ccc(-c2ccccc2-c2nnn[nH]2)cc1	Compound metabolized

Provide the reported Bacterial Biotransformation of each entry below, same order.
1. CO[C@H]1C[C@@H]2CC[C@@H](C)[C@@](O)(O2)C(=O)C(=O)N2CCCC[C@H]2C(=O)O[C@H]([C@H](C)C[C@@H]2CC[C@@H](OCCO)[C@H](OC)C2)CC(=O)[C@H](C)/C=C(\C)[C@@H](O)[C@@H](OC)C(=O)[C@H](C)C[C@H](C)/C=C/C=C/C=C/1C
2. C=CC[C@@H]1/C=C(\C)C[C@H](C)C[C@H](OC)[C@H]2O[C@@](O)(C(=O)C(=O)N3CCCC[C@H]3C(=O)O[C@H](/C(C)=C/[C@@H]3CC[C@@H](O)[C@H](OC)C3)[C@H](C)[C@@H](O)CC1=O)[C@H](C)C[C@@H]2OC.O
3. C[C@@H]1C[C@H]2[C@@H]3CCC4=CC(=O)C=C[C@]4(C)[C@@]3(F)[C@@H](O)C[C@]2(C)[C@@]1(O)C(=O)CO
4. COc1c(C)c2c(c(O)c1C/C=C(\C)CCC(=O)OCCN1CCOCC1)C(=O)OC2 [MYCOPHENOLATE MOFETIL]
5. COc1ccc([C@@H]2Sc3ccccc3N(CCN(C)C)C(=O)[C@@H]2OC(C)=O)cc1
6. CNC(=C[N+](=O)[O-])NCCSCc1ccc(CN(C)C)o1

Data returned:
1. Compound NOT metabolized
2. Compound NOT metabolized
3. Compound NOT metabolized
4. Compound NOT metabolized
5. Compound NOT metabolized
6. Compound NOT metabolized

# map each compound to its Bacterial Biotransformation
1. CCC(C)(C)C(=O)O[C@H]1C[C@@H](C)C=C2C=C[C@H](C)[C@H](CC[C@@H]3C[C@@H](O)CC(=O)O3)[C@H]21
2. C[C@]12C=CC(=O)C=C1CC[C@@H]1[C@@H]2C(=O)C[C@@]2(C)[C@H]1CC[C@]2(O)C(=O)CO

Data returned:
["Compound NOT metabolized", "Compound NOT metabolized"]

---

# Assay Procedure: The drug is tested on the gut metagenome community of T-01 with ENA study accession number: PRJEB31790 for biotransformation under microaerobic condition. The drug concentrations were measured over 7 timepoints collected between 0 and 12 hours of incubation by liquid-chromatography-coupled mass spectrometry (LC–MS)
# Assay type: ADME
# Parameters: dose 5 uM, timepoint 0, 0.75, 1.5, 3, 6, 9, 12 hours
# Conditions: 5 µM
Measured Attribute: Bacterial Biotransformation

Compound	Bacterial Biotransformation
COc1c(C)c2c(c(O)c1C/C=C(\C)CCC(=O)O)C(=O)OC2 [MYCOPHENOLIC ACID]	Compound NOT metabolized
CN(Cc1cnc2nc(N)nc(N)c2n1)c1ccc(C(=O)N[C@@H](CCC(=O)O)C(=O)O)cc1 [METHOTREXATE]	Compound metabolized
CC(C)NCC(O)COc1ccc(CC(N)=O)cc1 (configuration not stated) [ATENOLOL]	Compound NOT metabolized
CCCC1O[C@@H]2C[C@H]3[C@@H]4CCC5=CC(=O)C=C[C@]5(C)[C@H]4[C@@H](O)C[C@]3(C)[C@]2(C(=O)CO)O1 (some centres not stated) [BUDESONIDE]	Compound metabolized
CO[C@H]1C[C@@H]2CC[C@@H](C)[C@@](O)(O2)C(=O)C(=O)N2CCCC[C@H]2C(=O)O[C@H]([C@H](C)C[C@@H]2CC[C@@H](OCCO)[C@H](OC)C2)CC(=O)[C@H](C)/C=C(\C)[C@@H](O)[C@@H](OC)C(=O)[C@H](C)C[C@H](C)/C=C/C=C/C=C/1C [EVEROLIMUS]	Compound NOT metabolized
CCOC(=O)[C@H](CCc1ccccc1)N[C@@H](C)C(=O)N1[C@H](C(=O)O)C[C@@H]2CCC[C@@H]21	Compound NOT metabolized

Give me Bacterial Biotransformation for each of these compounds, listed below.
1. CCOc1nc2cccc(C(=O)O)c2n1Cc1ccc(-c2ccccc2-c2nnn[nH]2)cc1
2. NS(=O)(=O)c1cc(C(=O)O)c(NCc2ccco2)cc1Cl [FUROSEMIDE]
3. C[C@H]1C[C@H]2[C@@H]3CCC4=CC(=O)C=C[C@]4(C)[C@@]3(F)[C@@H](O)C[C@]2(C)[C@@]1(O)C(=O)CO [BETAMETHASONE]
4. C[C@@H]1C[C@H]2[C@@H]3CCC4=CC(=O)C=C[C@]4(C)[C@@]3(F)[C@@H](O)C[C@]2(C)[C@@]1(O)C(=O)CO [DEXAMETHASONE]
5. COc1c(C)c2c(c(O)c1C/C=C(\C)CCC(=O)OCCN1CCOCC1)C(=O)OC2 [MYCOPHENOLATE MOFETIL]
6. C[C@]12CCC(=O)C=C1CC[C@@H]1[C@@H]2C(=O)C[C@@]2(C)[C@H]1CC[C@]2(O)C(=O)CO [CORTISONE]

Data returned:
1: Compound NOT metabolized; 2: Compound NOT metabolized; 3: Compound NOT metabolized; 4: Compound metabolized; 5: Compound metabolized; 6: Compound metabolized

For the 2 compounds below, give their Bacterial Biotransformation values.
1. C[C@]12CCC(=O)C=C1CC[C@@H]1[C@@H]2[C@@H](O)C[C@@]2(C)[C@H]1CC[C@]2(O)C(=O)CO [HYDROCORTISONE]
2. CCC(C)(C)C(=O)O[C@H]1C[C@@H](C)C=C2C=C[C@H](C)[C@H](CC[C@@H]3C[C@@H](O)CC(=O)O3)[C@H]21 [SIMVASTATIN]

Data returned:
1. Compound metabolized
2. Compound NOT metabolized

Please report Bacterial Biotransformation for every entry that follows.
1. CO[C@H]1C[C@@H]2CC[C@@H](C)[C@@](O)(O2)C(=O)C(=O)N2CCCC[C@H]2C(=O)O[C@H]([C@H](C)C[C@@H]2CC[C@@H](O)[C@H](OC)C2)CC(=O)[C@H](C)/C=C(\C)[C@@H](O)[C@@H](OC)C(=O)[C@H](C)C[C@H](C)/C=C/C=C/C=C/1C [SIROLIMUS]
2. COc1ccc([C@@H]2Sc3ccccc3N(CCN(C)C)C(=O)[C@@H]2OC(C)=O)cc1 [DILTIAZEM]
3. C[C@@H](NCCCc1cccc(C(F)(F)F)c1)c1cccc2ccccc12

Data returned:
1: Compound NOT metabolized; 2: Compound metabolized; 3: Compound metabolized

---

# Assay Procedure: The drug is tested on the gut metagenome community of A-06 with ENA study accession number: PRJEB31790 for biotransformation under microaerobic condition. The drug concentrations were measured over 7 timepoints collected between 0 and 12 hours of incubation by liquid-chromatography-coupled mass spectrometry (LC–MS)
# Format: ADME
# Set-up: dose 5 uM, timepoint 0, 0.75, 1.5, 3, 6, 9, 12 hours
# Conditions: 5 µM
Measured Attribute: Bacterial Biotransformation

Worked examples follow.
Molecule	Bacterial Biotransformation
C[C@]12C=CC(=O)C=C1CC[C@@H]1[C@@H]2C(=O)C[C@@]2(C)[C@H]1CC[C@]2(O)C(=O)CO	Compound metabolized
NS(=O)(=O)c1cc(C(=O)O)c(NCc2ccco2)cc1Cl [FUROSEMIDE]	Compound NOT metabolized
CN(Cc1cnc2nc(N)nc(N)c2n1)c1ccc(C(=O)N[C@@H](CCC(=O)O)C(=O)O)cc1 [METHOTREXATE]	Compound metabolized
C[C@H]1C[C@H]2[C@@H]3CCC4=CC(=O)C=C[C@]4(C)[C@@]3(F)[C@@H](O)C[C@]2(C)[C@@]1(O)C(=O)CO	Compound NOT metabolized
CO[C@H]1C[C@@H]2CC[C@@H](C)[C@@](O)(O2)C(=O)C(=O)N2CCCC[C@H]2C(=O)O[C@H]([C@H](C)C[C@@H]2CC[C@@H](OCCO)[C@H](OC)C2)CC(=O)[C@H](C)/C=C(\C)[C@@H](O)[C@@H](OC)C(=O)[C@H](C)C[C@H](C)/C=C/C=C/C=C/1C	Compound metabolized
CCOC(=O)[C@H](CCc1ccccc1)N[C@@H](C)C(=O)N1[C@H](C(=O)O)C[C@@H]2CCC[C@@H]21	Compound NOT metabolized

Give measured Bacterial Biotransformation for every item shown.
1. C[C@@H]1C[C@H]2[C@@H]3CCC4=CC(=O)C=C[C@]4(C)[C@@]3(F)[C@@H](O)C[C@]2(C)[C@@]1(O)C(=O)CO
2. C[C@@H](NCCCc1cccc(C(F)(F)F)c1)c1cccc2ccccc12

Data returned:
1. Compound metabolized
2. Compound NOT metabolized

Dear reader, for each entry below, please note its Bacterial Biotransformation.
1. CCOC(=O)C1=C(COCCN)NC(C)=C(C(=O)OC)C1c1ccccc1Cl (centres undefined)
2. C[C@H]1C[C@@H]2[C@H]([C@@H](O)C[C@@]3(C)[C@H]2CC[C@]3(O)C(=O)CO)[C@@]2(C)C=CC(=O)C=C12
3. C=CC[C@@H]1/C=C(\C)C[C@H](C)C[C@H](OC)[C@H]2O[C@@](O)(C(=O)C(=O)N3CCCC[C@H]3C(=O)O[C@H](/C(C)=C/[C@@H]3CC[C@@H](O)[C@H](OC)C3)[C@H](C)[C@@H](O)CC1=O)[C@H](C)C[C@@H]2OC.O
4. COc1c(C)c2c(c(O)c1C/C=C(\C)CCC(=O)O)C(=O)OC2
5. C[C@]12CCC(=O)C=C1CC[C@@H]1[C@@H]2C(=O)C[C@@]2(C)[C@H]1CC[C@]2(O)C(=O)CO
6. COc1ccc([C@@H]2Sc3ccccc3N(CCN(C)C)C(=O)[C@@H]2OC(C)=O)cc1

Data returned:
1. Compound NOT metabolized
2. Compound metabolized
3. Compound metabolized
4. Compound NOT metabolized
5. Compound metabolized
6. Compound metabolized
